# Assay explanation: total protein half-life in vivo (active degradation + dilution); higher = more stable protein
# Cond: wild type E. coli NCM3722; growth: P-lim chemostat; doubling time 12 h
Value kind: total protein half-life in vivo (h)
Dear colleague, please return just the value in h, with no unit written.

# input sequence: "MARINRISITLCALLFTTLPLTPMAHASKQARESSATTHITKKADKKKSTATTKKTQKTAKKAASKSTTKSKTASSVKKSSITASKNAKTRSKHAVNKTASASFTEKCTKRKGYKSHCVKVKNAASGTLADAHKAKVQKATKVAMNKLMQQIGKPYRWGGSSPRTGFDCSGLVYYAYKDLVKIRIPRTANEMYHLRDAAPIERSELKNGDLVFFRTQGRGTADHVGVYVGNGKFIQSPRTGQEIQITSLSEDYWQRHYVGARRVMTPKTLR" ; wanted: its total protein half-life in vivo
6.68

# input sequence: "MIEIESRELADIPVLHAYPVGQKDTPLPCVIFYHGFTSSSLVYSYFAVALAQAGLRVIMPDAPDHGSRFSGDAARRLNQFWQILLQSMQEFTTLRAAIAEENWLLDDRLAVGGASMGAMTALGITARHPTVRCTASMMGSGYFTSLARSLFPPLIPETAAQQNEFNNIVAPLAEWEATNHLEQLSDRPLLLWHGLDDDVVPADESLRLQQALSETGRDKLLTCSWQPGVRHRITPEALDAAVTFFRQHL" ; wanted: its total protein half-life in vivo
12.2

# input sequence: MSETASWQPSASIPNLLKRAAIMAEIRRFFADRGVLEVETPCMSQATVTDIHLVPFETRFVGPGHSQGMNLWLMTSPEYHMKRLLVAGCGPVFQLCRSFRNEEMGRYHNPEFTMLEWYRPHYDMYRLMNEVDDLLQQVLDCPAAESLSYQQAFLRYLEIDPLSADKTQLREVAAKLDLSNVADTEEDRDTLLQLLFTFGVEPNIGKEKPTFVYHFPASQASLAQISTEDHRVAERFEVYYKGIELANGFHELTDAREQQQRFEQDNRKRAARGLPQHPIDQNLIEALKVGMPDCSGVALGVDRLVMLALGAETLAEVIAFSVDRA [P0A8N7] ; wanted: its total protein half-life in vivo
14.4

# input sequence: "MSVRLVLAKGREKSLLRRHPWVFSGAVARMEGKASLGETIDIVDHQGKWLARGAYSPASQIRARVWTFDPSESIDIAFFSRRLQQAQKWRDWLAQKDGLDSYRLIAGESDGLPGITIDRFGNFLVLQLLSAGAEYQRAALISALQTLYPECSIYDRSDVAVRKKEGMELTQGPVTGELPPALLPIEEHGMKLLVDIQHGHKTGYYLDQRDSRLATRRYVENKRVLNCFSYTGGFAVSALMGGCSQVVSVDTSQEALDIARQNVELNKLDLSKAEFVRDDVFKLLRTYRDRGEKFDVIVMDPPKFVENKSQLMGACRGYKDINMLAIQLLNEGGILLTFSCSGLMTSDLFQKIIADAAIDAGRDVQFIEQFRQAADHPVIATYPEGLYLKGFACRVM" ; wanted: its total protein half-life in vivo
13.1

# input sequence: "MSHVELQPGFDFQQAGKEVLAIERECLAELDQYINQNFTLACEKMFWCKGKVVVMGMGKSGHIGRKMAATFASTGTPSFFVHPGEAAHGDLGMVTPQDVVIAISNSGESSEITALIPVLKRLHVPLICITGRPESSMARAADVHLCVKVAKEACPLGLAPTSSTTATLVMGDALAVALLKARGFTAEDFALSHPGGALGRKLLLRVNDIMHTGDEIPHVKKTASLRDALLEVTRKNLGMTVICDDNMMIEGIFTDGDLRRVFDMGVDVRQLSIADVMTPGGIRVRPGILAVEALNLMQSRHITSVMVADGDHLLGVLHMHDLLRAGVV" ; wanted: its total protein half-life in vivo
11.6

// provenance: the supplement of paper PMC11246515
